assay: Mouse Pharmacokinetics Studies; assay type: in vivo; conditions: mouse; male C57BL/6 mice, 50 mg/kg oral gavage, non-fasted, plasma
Endpoint label: Cmax (µM)
# output: bare number, implied unit µM

The compound listed as O=C(N[C@@H]1CCC[C@H](Nc2cc(C(F)(F)F)nc3ccc(Cl)cc23)C1)N1CC2(CC2)C1 has a reported Cmax of 5.1

* * *

experiment: Mouse Pharmacokinetics Studies; assay type: in vivo; settings: male, C57BL/6, mouse, plasma, po, 50 mg/kg, male C57BL/6 mice, 50 mg/kg oral gavage, non-fasted, read-out: AUC 0-24
Endpoint label: AUC(0-t) (µM·h)
# output: bare number, implied unit µM·h

The compound listed as O=C(N[C@@H]1CCC[C@H](Nc2cc(C(F)(F)F)nc3ccc(Cl)cc23)C1)N1CC2(CC2)C1 has a reported AUC(0-t) of 43

Ref: patent US12275707B2
